experimental.target: TcdA-GTD (Clostridioides difficile, UniProt P16154)
Construct: TcdA-GTD (amino acids 1–542); His6 (C); made in house; host or cells: E. coli One shot BL21 Star (DE3)
Sequence (P16154 1-542): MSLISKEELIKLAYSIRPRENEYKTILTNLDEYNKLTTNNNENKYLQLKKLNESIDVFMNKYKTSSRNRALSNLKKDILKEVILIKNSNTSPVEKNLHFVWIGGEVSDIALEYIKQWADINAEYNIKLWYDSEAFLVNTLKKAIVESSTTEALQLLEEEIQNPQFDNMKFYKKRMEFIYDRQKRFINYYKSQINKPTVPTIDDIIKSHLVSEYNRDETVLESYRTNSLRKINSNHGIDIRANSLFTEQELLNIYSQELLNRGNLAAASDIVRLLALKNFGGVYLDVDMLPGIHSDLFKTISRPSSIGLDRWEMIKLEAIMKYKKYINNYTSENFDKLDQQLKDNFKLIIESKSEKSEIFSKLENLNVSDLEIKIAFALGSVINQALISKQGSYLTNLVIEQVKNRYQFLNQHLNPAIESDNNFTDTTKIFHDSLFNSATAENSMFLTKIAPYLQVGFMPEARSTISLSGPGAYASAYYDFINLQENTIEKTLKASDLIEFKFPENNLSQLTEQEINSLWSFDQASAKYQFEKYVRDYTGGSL
protocol.summary: biochemical
Format: biochemical, Clostridium difficile
condition.label: Ki TcdA-GTD glucosyltransferase activity
Below, each entry is listed alongside its reported Ki.
quantity.measured: Ki (nM)

- OC[C@H]1CNC(O)[C@@H](O)[C@@H]1O (some centres unmarked) [Noeuromycin]: 4700
- OC[C@H]1CNC[C@@H](O)[C@@H]1O [Isofagomine]: 240

* * *

experimental.target: TcdB-GTD (Clostridioides difficile, UniProt P18177)
Construct: C-terminal His-6 tagged TcdB-GTD (amino acids 1-546); His6 (C); made in house; host or cells: Escherichia coli One Shot BL21 Star (DE3)
Sequence (P18177 1-546 limits assumed): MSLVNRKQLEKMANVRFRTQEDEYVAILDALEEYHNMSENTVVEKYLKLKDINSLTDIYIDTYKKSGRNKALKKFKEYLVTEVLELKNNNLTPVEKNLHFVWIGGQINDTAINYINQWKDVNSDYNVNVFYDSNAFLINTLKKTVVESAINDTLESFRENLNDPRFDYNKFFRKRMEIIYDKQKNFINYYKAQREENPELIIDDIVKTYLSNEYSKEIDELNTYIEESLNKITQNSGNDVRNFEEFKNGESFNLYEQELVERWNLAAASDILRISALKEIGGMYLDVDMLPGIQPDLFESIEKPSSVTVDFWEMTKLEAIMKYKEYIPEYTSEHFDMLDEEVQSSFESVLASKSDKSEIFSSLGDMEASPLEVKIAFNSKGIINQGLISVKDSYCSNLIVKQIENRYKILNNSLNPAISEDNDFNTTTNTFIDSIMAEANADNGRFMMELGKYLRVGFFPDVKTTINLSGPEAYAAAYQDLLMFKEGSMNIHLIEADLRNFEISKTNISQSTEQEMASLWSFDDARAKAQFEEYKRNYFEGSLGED
protocol.summary: biochemical
Assay type: biochemical, Clostridium difficile
condition.label: read-out: Ki TcdB-GTD glucosyltransferase activity
Where a name gives a salt, the structure may show the parent alone.
quantity.measured: Ki (µM)

* OC[C@@H]1[C@@H](O)[C@H](O)[C@H]2[C@@H](O)CCN21 [Australine HCl, australine hydrochloride] | 1570

* * *

experimental.target: TcdB-GTD (Clostridioides difficile, UniProt P18177)
Construct: C-terminal His-6 tagged TcdB-GTD (amino acids 1-546); His6 (C); made in house; host or cells: Escherichia coli One Shot BL21 Star (DE3)
protocol.summary: biochemical
Parameters: species or system Clostridium difficile
condition.label: read-out: Ki TcdB-GTD GH activity; no inhibition
Where a name gives a salt, the structure may show the parent alone.
quantity.measured: Ki

• OC[C@@H]1[C@@H](O)[C@H](O)[C@H]2[C@@H](O)CCN21 [Australine HCl, australine hydrochloride] = > 10 mM

* * *

experimental.target: TcdB-GTD (Clostridioides difficile, UniProt P18177)
Construct: C-terminal His-6 tagged TcdB-GTD (amino acids 1-546); His6 (C); made in house; host or cells: Escherichia coli One Shot BL21 Star (DE3)
protocol.summary: biochemical
Set-up: species or system Clostridium difficile
condition.label: read-out: Ki TcdB-GTD glucohydrolase activity
Counter-ions that a name gives are not always drawn.
quantity.measured: Ki

* OC[C@@H]1[C@@H](O)[C@H](O)[C@H]2[C@@H](O)CCN21 [Australine HCl, australine hydrochloride] | > 10 mM

* * *

Below, each entry is listed alongside its reported Ki.
experimental.target: TcdB-GTD (Clostridioides difficile)
Construct: C-terminal His-6 tagged TcdB-GTD (amino acids 1-546); His6 (C); made in house; host or cells: Escherichia coli One Shot BL21 Star (DE3)
protocol.summary: biochemical
Assay type: biochemical, Clostridium difficile
condition.label: Ki TcdB-GTD glucosyltransferase activity, fixed concentration of UDP at 2 x Ki UDP
quantity.measured: Ki (nM)

- OC[C@H]1CNC(O)[C@@H](O)[C@@H]1O (some centres unmarked) [Noeuromycin]: 4400
- OC[C@H]1CNC[C@@H](O)[C@@H]1O [Isofagomine]: 290

* * *

Below, each entry is listed alongside its reported Ki.
experimental.target: TcdA-GTD (Clostridioides difficile, UniProt P16154)
Construct: TcdA-GTD (amino acids 1–542); His6 (C); made in house; host or cells: E. coli One shot BL21 Star (DE3)
protocol.summary: biochemical
Format: biochemical, Clostridium difficile
condition.label: Ki TcdA-GTD glucosyltransferase activity, fixed concentration of UDP at 2 x Ki UDP
quantity.measured: Ki (nM)

* OC[C@H]1CNC(O)[C@@H](O)[C@@H]1O (some centres unmarked) [Noeuromycin] | 214
* OC[C@H]1CNC[C@@H](O)[C@@H]1O [Isofagomine] | 16
